# Measurement Description: amyloid nucleation score (Sup35N fusion, yeast selection) (log enrichment); library NNK3; higher = more nucleation; inactive = no reads after selection;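 also: zero at mode of non-aggregating sequences after 7 days selection at 30°C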
Measurement Label: amyloid nucleation score

Known results for substances:
# input Fill in the blank: the reported amyloid nucleation score of NLNGLMRLQIAVLFQ is ____.
# output 0.577

# input Fill blank: measured amyloid nucleation score of the substance SSLCYTHRACTCNFTKVDSF is ____.
# output inactive

# input Dear colleague, I am looking for the recorded amyloid nucleation score of the following substance: PTVKKLYMQLFLSPCISSEG
# output inactive

# input What does the record list as amyloid nucleation score for SLDFSSGDVKNLKCCNVLMK ?
# output inactive

# input amyloid nucleation score lookup needed for DNSVNKYKKTNVSVISARVR , thanks.
# output inactive

# input // query amyloid nucleation score value for entry NCRSFCC
# output 0.905

# input For the substance shown here, HYYNSHSWATTTT , give the reported amyloid nucleation score.
# output inactive

# input Which amyloid nucleation score reading was recorded for the substance HCFVANGFLD ?
# output inactive

Below is a list of substances. For each, state its recorded amyloid nucleation score.
1. CLCFCCCSRVHYGTLFRNSA
2. YGLTVCTTGLVFNNWMGSMV
3. FRASVPPEVLPKFARVGMNA
4. ANVARFMYSFVKQALSLWVR
5. AWSLVGMHAVNNFHLKQEFL
6. YSGFSYVRGLYGSGYVMAQP
7. LVRCSNTR

# output
1. 2.98
2. 1.83
3. inactive
4. inactive
5. inactive
6. -0.192
7. inactive

Can you give me amyloid nucleation score for all of these, one by one?
1. RYCGYHGVRFCSVCRFNMSL
2. MISRSSNKGV
3. NYMYGLRGSRLQFGMFRFGG
4. GGWSARYTNCNLYYTEASGP
5. FFWVMISGVFLRRIHDSRSA
6. HLRVRCLSF
7. HVFCHVPNPCLVGSMLTLGD
8. IRCMSLYLHNGGVYRS

# output
["inactive", "inactive", "inactive", 0.857, "inactive", "inactive", "inactive", 1.72]

* * *

# Measurement Description: amyloid nucleation score (Sup35N fusion, yeast selection) (log enrichment); library NNK1; higher = more nucleation; inactive = no reads after selection
The label depends only on amyloid nucleation score: YES if it is at least 0.7, NO if it is smaller.

# input Please check the record SGFAVLKIVMAFHLTLEHQF and state if its amyloid nucleation score is at or above 0.7.
# output NO

***
# input Record RSRLPGCDFVPLYEVH ; criterion: amyloid nucleation score no lower than 0.7. Met?
# output NO

# input hey, is amyloid nucleation score for this one >= 0.7? LRDRCTFG
# output NO

# input Is it the case that YRLCSMSMRCGLRSIFSNRL has amyloid nucleation score reaching or exceeding 0.7?
# output NO

# input Is reported amyloid nucleation score greater than or equal to 0.7 here: YWPPGFAVS
# output YES

# input Decide: amyloid nucleation score of SRIFRKLHYSTWIQMRGLCP >= 0.7?
# output NO

* * *

# Measurement Description: amyloid nucleation score (Sup35N fusion, yeast selection) (log enrichment); library NNK1; higher = more nucleation; inactive = no reads after selection
Measurement Label: amyloid nucleation score
One number for each entry.

Please review the following examples before continuing.
# input Return reported amyloid nucleation score; argument: CIYIWCGVFGSYFGFLVLAA
# output 0.18

# input Param item = GIHSLFMVAIYFAYWLRKWV ; retrieve measured amyloid nucleation score.
# output -0.877

Further cases:
# input Tell me the measured amyloid nucleation score of MYLCVRLGSIKYFSGVLWS , please.
# output 0.056

* * *

# Measurement Description: amyloid nucleation score (Sup35N fusion, yeast selection) (log enrichment); library NNK3; higher = more nucleation; inactive = no reads after selection
Measurement Label: amyloid nucleation score

// solved cases for amyloid nucleation score follow
# input Given LLQICGVYYYPIVSYSPDDF , state its recorded amyloid nucleation score.
# output inactive

# input Would you kindly share the measured amyloid nucleation score for FVLHNS ?
# output inactive

# input substance: CYMVEDRRIDSRSAVSWRYV ; wanted: its amyloid nucleation score
# output inactive

# input Fill in: amyloid nucleation score of VAQRELWEEAIRCRYEH is ___
# output inactive

# input Which measured amyloid nucleation score value corresponds to FMGQFIYLSSRCNSSVDSEV ?
# output inactive

# input # query: amyloid nucleation score of entry YLMVSVNFFSYVLSESRMCG
# output 0.85

Working through the 4 substances below one at a time, give amyloid nucleation score for each.
1. VMFCFKRHLL
2. IDTWFISFRCMFSGNYMYFL
3. LWYGKYFFIDKRQA
4. DCVRVRVLKSGTYLLYRSEA

# output
1: 0.922; 2: inactive; 3: 0.359; 4: inactive

* * *

# Measurement Description: amyloid nucleation score (Sup35N fusion, yeast selection) (log enrichment); library NNK1; higher = more nucleation; inactive = no reads after selection
Kindly state amyloid nucleation score for each of the entries shown.
Answers are plain numbers.

Before answering, review these 2 worked examples.
# input May I ask what amyloid nucleation score has been recorded for QMIMAMNSFLISYLNHMWPG ?
# output 2.13

# input Query (sequence): VVDVHVSFRCLFKMGV ; field requested: amyloid nucleation score
# output 1.51

Moving on to another sequence below.
# input Record request: amyloid nucleation score value, item LESFWGSPA
# output 0.445

* * *

# Measurement Description: amyloid nucleation score (Sup35N fusion, yeast selection) (log enrichment); library NNK3; higher = more nucleation; inactive = no reads after selection
Measurement Label: amyloid nucleation score

Worked cases, amyloid nucleation score given:
# input Field request: amyloid nucleation score | item: IMGALLTYSRTTGRVNYRMW
# output inactive

# input Would you kindly share the measured amyloid nucleation score for NFLGAFRIPRLLRSLVALYL ?
# output inactive

# input For the substance FARVRVNISFPISKSFCNIM , what amyloid nucleation score is on record?
# output 2.34

# input Give its amyloid nucleation score value. Item: LFVMGRFVSFALFTWKTDNV
# output inactive

# input Name the recorded amyloid nucleation score for FVLIIYLLACSEMLFVFKEV .
# output inactive

State recorded amyloid nucleation score for all listed substances.
1. MSENLDKLKTFPPALE
2. QTAFQRL
3. YNAYLKENLILLYLCRSSRE
4. IRHRTIWSYGSFY
5. LINNSEASLIHYIYGRGNVQ
6. FEVWRTGLCDRARGTVNRLK

# output
["inactive", "inactive", 2.17, "inactive", -0.664, "inactive"]

* * *

# Measurement Description: amyloid nucleation score (Sup35N fusion, yeast selection) (log enrichment); library NNK2; higher = more nucleation; inactive = no reads after selection
Measurement Label: amyloid nucleation score

# input For VYATFPSTIYLMLVFMESGV , what is its reported amyloid nucleation score?
# output inactive

# input Entry TCIDEGEVVLDFFNVIKVLC has what amyloid nucleation score?
# output inactive

# input Query: amyloid nucleation score; subject: RLCLRDQYSFGQIVDYKCFD
# output inactive

* * *

# Measurement Description: amyloid nucleation score (Sup35N fusion, yeast selection) (log enrichment); library NNK3; higher = more nucleation; inactive = no reads after selection
Measurement Label: amyloid nucleation score

# input Request the reported amyloid nucleation score associated with LPAWKKTAFYFRYHGPFVRS
# output inactive

# input Look up amyloid nucleation score: NAHSHGYGSVPGR
# output inactive

# input Request the reported amyloid nucleation score associated with SAWVVFVVFFVSFDPDILFY
# output inactive

# input Sample EWKWQSKHTITYFLHHCSEH — what was its amyloid nucleation score?
# output 0.534

# input What amyloid nucleation score value was documented for this substance, CFFIVGLARIFGLVPVA ?
# output 0.804

// each substance listed below needs its amyloid nucleation score
1. WKGMITFGI
2. QLRRCLEMARYSKARFRNCM
3. GIFCGLTGLIDGMRTQHSEL
4. ESSLWYI
5. AVLWIVSGGTYESVDLNYWC
6. GKYCLNDSCPFHY

# output
inactive
inactive
0.816
inactive
0.837
inactive

I need amyloid nucleation score for every entry listed below, if you could help.
1. DLRGETNSYSGVCQERK
2. EIRRCTPCLLWVLLLFAINR

# output
[0.104, "inactive"]

* * *

# Measurement Description: amyloid nucleation score (Sup35N fusion, yeast selection) (log enrichment); library NNK2; higher = more nucleation; inactive = no reads after selection
Measurement Label: amyloid nucleation score

# input sequence: YRGSGLMNTSDFVSVLALVN ; wanted: its amyloid nucleation score
# output inactive

# input Look up amyloid nucleation score for this sequence: KTDRLTKGTATFKRMTEI
# output inactive

# input Value lookup for amyloid nucleation score; key = FRKSFHIYIVELYMDDHPLM
# output inactive

* * *

Give measured amyloid nucleation score for each item. Keep answers brief.
# Measurement Description: amyloid nucleation score (Sup35N fusion, yeast selection) (log enrichment); library NNK2; higher = more nucleation; inactive = no reads after selection
Give bare numbers.

# input Please look up its amyloid nucleation score: RSAILEEDFDCHMYWGL
# output 0.916

# input Sample SKLEENIPKLVTRYQCGTGR — what was its amyloid nucleation score?
# output 0.143

# input Quick one: amyloid nucleation score for AYDFGVA ?
# output -0.263

# input Name the recorded amyloid nucleation score for LLIINIEMYRCNRLLYIDNN .
# output 3.15

# input // lookup amyloid nucleation score for ILLTFVPAEKSWTSAIL
# output 0.058

For each listed entry, give its amyloid nucleation score.
1. WSRADDRQWGPRLDNVVVMV
2. FFWFQTSLDTPWKEVILVYI

# output
0.83
-0.719

Give amyloid nucleation score for each of the items listed below.
1. WVAKYLFSLEDHVSVRIVDI
2. LIYITVGRLQHGALCFLGKC
3. AAFLAVSGFCNLPGGSTHIL
4. CLGFGRSSPTGYNTCVVRNY
5. LSMEVRGMVATMVVTWNFVS

# output
1: 0.227; 2: 0.148; 3: 2.38; 4: -0.493; 5: 0.07

Parameter requested: amyloid nucleation score. Apply to each item below.
1. DAWFVINHHPIEYLSLRVWR
2. CNPVAV
3. FLRYHNAGALENIRYVSCLC

# output
1. 0.98
2. 0.8
3. -0.253

Provide amyloid nucleation score values for the following items, in order.
1. FKYVFCSDEVGSMYVMCNCM
2. DHRLYQSFKALRVPSVVLRG
3. MMVGFLCK
4. SSLNHNPGWTEIYELHLVGF
5. HKWWSAPGSLAS
6. GCSLVKAYCSVL
7. VWWVAFYSGTKI

# output
8.57
-0.766
3.91
0.27
-0.038
0.325
0.019

# return amyloid nucleation score for each item in the list
1. SSRQSW
2. IPQEYPSDSMDVVMYISTLV
3. NSFVAIKCIV

# output
1: 0.082; 2: -0.016; 3: -0.023

List the reported amyloid nucleation score of each substance below.
1. LIIVMTLPYFGTSAM
2. HIFHCLSMGILGCSMFLCLD
3. LCFATYVGTGCVLGLPGYHK
4. NIEVWMFYSLMNMNEA

# output
0.362
0.952
4.59
-0.509

Please give amyloid nucleation score, item by item, for the list that follows.
1. ADPSDVFMVVVLGSCRAFTV
2. GVEVKSNVWTVSGWESQTPQ
3. LVQMLVSV

# output
1: 1.63; 2: 1.89; 3: -0.342

Okay, here is my list. What is amyloid nucleation score for each of these?
1. LGVMRIVHVGLWSAR
2. TLFSYEYVYKFMGPRFKGAG
3. LFDFGETVVIVLHVHSMLCL
4. VFGACGTM

# output
1. -0.249
2. -0.746
3. 4.41
4. 0.606
